src = patent US6225322A

Molecular target: farnesyl protein transferase (Homo sapiens, UniProt P49354+P49356)
Assay: FPT IC50 (inhibition of farnesyl protein transferase, in vitro enzyme assay)
PROPERTY NAME: pIC50
Numbers only, as −log10 of the molar value.

See these solved cases before continuing.
[[record]]
compound = "Cc1cnc2c(c1)CCc1cccnc1C2C1CCN(C(=O)Cc2cc[n+]([O-])cc2)CC1 (centres unmarked)"
property_name = "pIC50"
result_number = 6.80

[[record]]
compound = "O=C(Cc1cc[n+]([O-])cc1)N1CCC(C2c3ncccc3CCc3cc(Br)cnc32)CC1 (centres unmarked)"
property_name = "pIC50"
result_number = 6.54


**Q:** For the compound `O=C(Cc1cc[n+]([O-])cc1)N1CCC(C2c3ncc(Br)cc3CCc3cc(Br)cnc32)CC1` , what pIC50 is on record?
**A:** 7.55
